- measured.target: Histone acetyltransferase KAT2B (Homo sapiens, UniProt Q92831)
- Sequence (Q92831 whole entry, the tested form may be a part): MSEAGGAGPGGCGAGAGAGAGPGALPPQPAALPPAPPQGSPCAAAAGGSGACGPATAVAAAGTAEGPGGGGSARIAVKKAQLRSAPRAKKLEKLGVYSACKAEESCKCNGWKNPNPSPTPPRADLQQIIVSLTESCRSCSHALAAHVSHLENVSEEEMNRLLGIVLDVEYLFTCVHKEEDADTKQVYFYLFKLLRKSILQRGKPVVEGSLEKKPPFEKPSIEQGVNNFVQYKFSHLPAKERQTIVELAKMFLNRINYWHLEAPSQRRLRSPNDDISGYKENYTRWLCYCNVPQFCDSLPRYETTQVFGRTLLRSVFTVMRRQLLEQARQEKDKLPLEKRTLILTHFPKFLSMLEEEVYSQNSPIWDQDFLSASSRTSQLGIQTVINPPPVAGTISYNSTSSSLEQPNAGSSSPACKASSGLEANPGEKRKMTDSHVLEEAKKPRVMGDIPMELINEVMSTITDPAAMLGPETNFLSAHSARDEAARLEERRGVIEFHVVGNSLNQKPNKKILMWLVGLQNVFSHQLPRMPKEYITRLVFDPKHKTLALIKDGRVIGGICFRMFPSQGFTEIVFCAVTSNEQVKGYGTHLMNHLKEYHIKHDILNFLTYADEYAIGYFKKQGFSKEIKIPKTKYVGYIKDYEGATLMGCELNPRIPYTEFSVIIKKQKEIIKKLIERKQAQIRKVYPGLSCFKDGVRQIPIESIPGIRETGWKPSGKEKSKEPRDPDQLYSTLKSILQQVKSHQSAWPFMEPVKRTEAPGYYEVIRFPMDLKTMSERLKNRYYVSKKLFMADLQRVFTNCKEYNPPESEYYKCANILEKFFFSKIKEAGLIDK
- protocol.notes: Inhibition of recombinant human KAT2B catalytic domain using biotinylated histone H3 (1 to 21 amino acid residues) as substrate preincubated for 10 mins followed by acetyl-CoA addition measured after 10 mins by time resolved fluorescence assay
Recorded IC50, one value per entry.

{"substance.smiles": "O=C(Cn1sc2ccccc2c1=O)Nc1nccs1", "IC50": "9.41 µM"}
{"substance.smiles": "O=c1c2ccccc2sn1-c1nc2ccccc2s1", "IC50": "4.55 µM"}
{"substance.smiles": "O=c1c2cc([N+](=O)[O-])cnc2sn1-c1ccc(Oc2ccccc2)cc1", "IC50": "5.3 µM"}
{"substance.smiles": "O=C(Cn1sc2ccccc2c1=O)NCc1ccccn1", "IC50": "15.1 µM"}
{"substance.smiles": "Cc1ccc(-c2csc(-n3sc4ccccc4c3=O)n2)cc1", "IC50": "5.82 µM"}
{"substance.smiles": "O=c1c2ccccc2sn1-c1ccc(S(=O)(=O)N2CCCC2)cc1", "IC50": "6.19 µM"}
{"substance.smiles": "O=C(O)CCCn1sc2ccccc2c1=O", "IC50": "67 µM"}

* * *

Recorded inhibition, one value per entry.
- measured.target: Histone acetyltransferase KAT2A (Homo sapiens)
- Sequence (Q92830 2-837 limits assumed): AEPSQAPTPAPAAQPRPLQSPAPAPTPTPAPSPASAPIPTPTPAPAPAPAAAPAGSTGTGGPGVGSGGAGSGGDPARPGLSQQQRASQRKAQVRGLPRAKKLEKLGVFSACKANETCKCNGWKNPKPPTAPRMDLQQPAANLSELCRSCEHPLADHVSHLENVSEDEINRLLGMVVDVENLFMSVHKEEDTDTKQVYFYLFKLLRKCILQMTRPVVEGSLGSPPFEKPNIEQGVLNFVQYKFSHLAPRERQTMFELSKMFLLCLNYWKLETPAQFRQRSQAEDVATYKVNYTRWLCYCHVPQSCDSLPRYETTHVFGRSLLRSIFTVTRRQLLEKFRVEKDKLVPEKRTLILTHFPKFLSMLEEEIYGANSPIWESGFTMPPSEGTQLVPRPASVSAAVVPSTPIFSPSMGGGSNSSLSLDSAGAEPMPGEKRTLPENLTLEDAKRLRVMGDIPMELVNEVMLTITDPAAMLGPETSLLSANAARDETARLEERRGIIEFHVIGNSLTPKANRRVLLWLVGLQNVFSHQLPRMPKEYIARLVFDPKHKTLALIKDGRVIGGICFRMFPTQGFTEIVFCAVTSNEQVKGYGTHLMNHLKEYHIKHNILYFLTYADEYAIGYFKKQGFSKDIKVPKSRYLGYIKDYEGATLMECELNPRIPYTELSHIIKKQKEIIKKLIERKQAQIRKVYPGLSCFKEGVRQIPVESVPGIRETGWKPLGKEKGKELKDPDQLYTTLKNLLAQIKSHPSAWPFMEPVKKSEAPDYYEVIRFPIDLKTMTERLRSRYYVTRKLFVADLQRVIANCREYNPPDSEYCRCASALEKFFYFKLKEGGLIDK
- protocol.notes: Inhibition of recombinant human KAT2A using biotinylated histone H3 (1 to 21 amino acid residues) as substrate at 50 uM preincubated for 10 mins followed by acetyl-CoA addition measured after 10 mins by time resolved fluorescence assay

{"substance.smiles": "CCNC(=O)OCCn1sc2nc(C)cc(C)c2c1=O", "endpoint.unit": "%", "inhibition": 9}
{"substance.smiles": "CCOC(=O)Cn1sc2nc(C)cc(C)c2c1=O", "endpoint.unit": "%", "inhibition": 91}
{"substance.smiles": "O=c1c2cccnc2sn1-c1ccc(Cl)cc1", "endpoint.unit": "%", "inhibition": 96}
{"substance.smiles": "O=c1c2ccccc2sn1-c1ccc(S(=O)(=O)N2CCCC2)cc1", "endpoint.unit": "%", "inhibition": 73}
{"substance.smiles": "O=c1c2cccnc2sn1Cc1ccc(Cl)c(Cl)c1", "endpoint.unit": "%", "inhibition": 73}
{"substance.smiles": "CC(C)CNC(=O)CCn1sc2ccccc2c1=O", "endpoint.unit": "%", "inhibition": 54}
{"substance.smiles": "O=c1c2cc([N+](=O)[O-])cnc2sn1-c1ccc(Oc2ccccc2)cc1", "endpoint.unit": "%", "inhibition": 93}
{"substance.smiles": "Cc1cc(-n2sc3ccccc3c2=O)c2ccccc2n1", "endpoint.unit": "%", "inhibition": 2.52}
{"substance.smiles": "O=C(Cn1sc2ccccc2c1=O)Nc1nccs1", "endpoint.unit": "%", "inhibition": 79}
{"substance.smiles": "COCCNC(=O)Cn1sc2ccccc2c1=O", "endpoint.unit": "%", "inhibition": 77}
{"substance.smiles": "Cc1ccnc(-n2sc3ccccc3c2=O)n1", "endpoint.unit": "%", "inhibition": 82}
{"substance.smiles": "O=c1c2ccccc2sn1-c1nccs1", "endpoint.unit": "%", "inhibition": 91}
{"substance.smiles": "CCOC(=O)c1ccc(-n2sc3ccccc3c2=O)cc1", "endpoint.unit": "%", "inhibition": 93}

* * *

Recorded log10 of IC50, one value per entry.
- measured.target: CREB-binding protein (Homo sapiens)
- Sequence (Q92793 whole entry, the tested form may be a part): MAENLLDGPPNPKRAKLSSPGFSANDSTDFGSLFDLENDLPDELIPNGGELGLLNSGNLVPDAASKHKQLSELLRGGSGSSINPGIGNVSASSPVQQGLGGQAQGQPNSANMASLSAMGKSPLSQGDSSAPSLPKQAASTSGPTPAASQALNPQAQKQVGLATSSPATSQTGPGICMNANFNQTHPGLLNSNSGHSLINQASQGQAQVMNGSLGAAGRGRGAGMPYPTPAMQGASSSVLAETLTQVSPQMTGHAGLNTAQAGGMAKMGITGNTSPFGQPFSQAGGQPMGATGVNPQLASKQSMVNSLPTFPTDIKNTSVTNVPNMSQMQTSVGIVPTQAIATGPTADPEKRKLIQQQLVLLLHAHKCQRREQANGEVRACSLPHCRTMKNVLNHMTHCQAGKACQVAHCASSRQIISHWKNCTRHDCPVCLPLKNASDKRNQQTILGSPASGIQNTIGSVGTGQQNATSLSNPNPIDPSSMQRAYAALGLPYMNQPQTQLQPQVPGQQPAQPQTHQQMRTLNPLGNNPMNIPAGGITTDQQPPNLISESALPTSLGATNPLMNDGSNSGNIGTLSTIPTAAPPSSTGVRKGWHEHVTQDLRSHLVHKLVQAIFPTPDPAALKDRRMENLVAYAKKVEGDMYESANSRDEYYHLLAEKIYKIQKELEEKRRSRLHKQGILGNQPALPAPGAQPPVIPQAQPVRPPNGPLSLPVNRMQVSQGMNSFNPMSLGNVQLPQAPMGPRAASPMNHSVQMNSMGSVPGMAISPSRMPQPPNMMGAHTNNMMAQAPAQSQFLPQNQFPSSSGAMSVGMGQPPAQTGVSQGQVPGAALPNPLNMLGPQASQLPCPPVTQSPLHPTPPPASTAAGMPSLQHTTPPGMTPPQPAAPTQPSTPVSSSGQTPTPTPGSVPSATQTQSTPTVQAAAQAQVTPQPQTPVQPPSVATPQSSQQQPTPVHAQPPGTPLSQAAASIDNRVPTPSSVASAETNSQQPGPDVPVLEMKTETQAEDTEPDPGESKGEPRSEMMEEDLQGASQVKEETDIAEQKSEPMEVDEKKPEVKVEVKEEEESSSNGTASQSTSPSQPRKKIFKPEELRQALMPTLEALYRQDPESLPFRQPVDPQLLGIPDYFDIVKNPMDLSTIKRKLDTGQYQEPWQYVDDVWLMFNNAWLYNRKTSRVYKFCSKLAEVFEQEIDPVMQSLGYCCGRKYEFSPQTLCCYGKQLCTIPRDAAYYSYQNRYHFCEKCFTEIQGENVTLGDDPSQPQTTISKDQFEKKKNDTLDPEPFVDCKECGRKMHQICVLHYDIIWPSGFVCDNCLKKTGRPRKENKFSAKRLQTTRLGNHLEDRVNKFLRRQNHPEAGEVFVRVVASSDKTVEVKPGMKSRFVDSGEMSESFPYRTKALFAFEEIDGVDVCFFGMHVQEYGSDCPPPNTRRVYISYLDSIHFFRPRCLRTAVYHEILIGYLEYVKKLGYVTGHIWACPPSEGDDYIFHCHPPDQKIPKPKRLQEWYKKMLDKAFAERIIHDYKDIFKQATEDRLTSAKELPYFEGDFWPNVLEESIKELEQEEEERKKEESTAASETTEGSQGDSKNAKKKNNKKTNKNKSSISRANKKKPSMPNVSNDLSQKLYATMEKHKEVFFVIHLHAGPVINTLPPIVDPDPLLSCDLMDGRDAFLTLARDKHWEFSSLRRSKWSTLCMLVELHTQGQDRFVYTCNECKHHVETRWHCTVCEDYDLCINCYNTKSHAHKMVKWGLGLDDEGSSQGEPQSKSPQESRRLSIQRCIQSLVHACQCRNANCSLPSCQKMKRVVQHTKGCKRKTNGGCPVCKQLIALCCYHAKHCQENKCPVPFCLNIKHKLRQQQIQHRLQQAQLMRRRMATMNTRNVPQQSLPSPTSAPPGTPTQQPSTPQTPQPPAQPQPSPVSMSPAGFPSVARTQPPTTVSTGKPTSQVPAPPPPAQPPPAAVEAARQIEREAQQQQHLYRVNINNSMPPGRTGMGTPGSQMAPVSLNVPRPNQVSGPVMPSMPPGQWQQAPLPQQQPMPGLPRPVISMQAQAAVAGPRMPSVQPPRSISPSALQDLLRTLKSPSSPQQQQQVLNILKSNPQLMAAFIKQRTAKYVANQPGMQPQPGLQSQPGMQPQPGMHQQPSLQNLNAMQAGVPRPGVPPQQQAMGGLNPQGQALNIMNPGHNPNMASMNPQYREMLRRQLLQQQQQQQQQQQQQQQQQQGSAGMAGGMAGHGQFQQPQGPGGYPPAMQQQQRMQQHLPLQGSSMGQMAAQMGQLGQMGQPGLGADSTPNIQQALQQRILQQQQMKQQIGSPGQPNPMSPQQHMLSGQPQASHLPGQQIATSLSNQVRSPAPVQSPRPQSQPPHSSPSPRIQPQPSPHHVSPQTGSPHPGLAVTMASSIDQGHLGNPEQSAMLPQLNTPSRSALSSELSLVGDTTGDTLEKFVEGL
- protocol.notes: Inhibition of recombinant human CBP using biotinylated histone H3 (1 to 21 amino acid residues) as substrate preincubated for 10 mins followed by acetyl-CoA addition measured after 10 mins by time resolved fluorescence assay
endpoint: log10 of IC50 (log10 of the value in nM)

{"substance.smiles": "O=C(Cn1sc2cc(F)ccc2c1=O)Nc1nc(-c2ccccc2)cs1", "log10 of IC50": 3.16}
{"substance.smiles": "Cc1cc(C)c2c(=O)n(CC(=O)Nc3ccc(Cl)cc3)sc2n1", "log10 of IC50": 2.64}
{"substance.smiles": "Cc1cc(C)c2c(=O)n(CN(C)Cc3ccccc3)sc2n1", "log10 of IC50": 3.73}
{"substance.smiles": "O=c1c2cccnc2sn1-c1ccc(F)cc1", "log10 of IC50": 3.40}
{"substance.smiles": "O=c1c2cccnc2sn1Cc1ccc(Cl)c(Cl)c1", "log10 of IC50": 3.10}
{"substance.smiles": "O=c1c2cccnc2sn1Cc1ccc(C(F)(F)F)cc1", "log10 of IC50": 3.45}
{"substance.smiles": "O=c1c2cccnc2sn1-c1ccc(Cl)cc1", "log10 of IC50": 3.72}
{"substance.smiles": "CCNC(=O)OCCn1sc2nc(C)cc(C)c2c1=O", "log10 of IC50": 3.22}
